meta.source: ChEMBL document CHEMBL1201862

- Test system: IGROV-1
- MEASUREMENT DESCRIPTION: NCI tumour cell line growth inhibition, 48 h
The source made the active and inactive calls. Cut-off read from the data, not from the text of the source: active = GI50 up to about 1.1 µM and inactive = higher.
Allowed answers: YES (active), NO (inactive)

Data request: Name the outcome recorded for COc1cccc2c1[C@H]1OC(=O)NC1CCCCC2 (some centres not stated) in the assay.
Data returned: NO

Data request: Name the outcome recorded for CC(=O)NNc1nc(C)c(C(=O)/C=C/c2ccc(Cl)cc2)s1 in the assay.
Data returned: NO

Data request: Name the outcome recorded for CNC(=O)N1CCN(C(=O)NC)CCN(C(=O)NC)CC1 in the assay.
Data returned: NO

Data request: Name the outcome recorded for Nc1nc(O)c2ncn(C3C=CC(CO)C3)c2n1 (configuration not stated) in the assay.
Data returned: NO

Data request: Name the outcome recorded for Cc1nc(-c2cc3ccccc3oc2=O)cs1 in the assay.
Data returned: NO

Data request: Name the outcome recorded for Cc1cc2nc3c(C#N)c4c(c(-c5ccc(Cl)cc5)n3c2cc1C)CCC4 in the assay.
Data returned: NO

Data request: Name the outcome recorded for C=C(C)C1CC(=O)C(C)=C(O)C1 (configuration not stated) in the assay.
Data returned: NO

Data request: Name the outcome recorded for Cc1cc2c(-c3ccccc3)cc(=O)[nH]c2cc1N in the assay.
Data returned: NO

Data request: Name the outcome recorded for Cc1occc1C(=S)Nc1ccc(Cl)c(/C=N/OC(C)C)c1 in the assay.
Data returned: NO

Data request: Name the outcome recorded for Clc1ccc(-c2c3nc(c(-c4ccc(Cl)cc4)c4ccc([nH]4)c(-c4ccc(Cl)cc4)c4nc(c(-c5ccc(Cl)cc5)c5ccc2[nH]5)C=C4)C=C3)cc1 in the assay.
Data returned: NO

Data request: Name the outcome recorded for O=C(CCC(=O)C(C(=O)c1ccccc1)c1ccccc1)Nc1cccc(C(F)(F)F)c1 (configuration not stated) in the assay.
Data returned: NO

Data request: Name the outcome recorded for [O-][n+]1c2cc(CN3CCOCC3)c(CN3CCOCC3)cc2[n+]([O-])c2c(O)cccc21 in the assay.
Data returned: NO

Data request: Name the outcome recorded for NCc1ccc(O)c(O)c1O in the assay.
Data returned: NO

Data request: Name the outcome recorded for CCCc1n[nH]c(=O)n1N1C(=O)C=CC1=O in the assay.
Data returned: NO

Data request: Name the outcome recorded for O=C1C(Cl)N(c2ccccc2)C1c1c[nH]c2ccccc12 (configuration not stated) in the assay.
Data returned: NO

Data request: Name the outcome recorded for CC(=O)O[C@H]1C(=O)[C@@]2(C)[C@H]([C@H](OC(=O)c3ccccc3)[C@]3(O)C[C@H](OC(=O)[C@H](O)[C@@H](NC(=O)CC(C)C)c4ccccc4)C(C)=C1C3(C)C)[C@]1(OC(C)=O)CO[C@@H]1C[C@@H]2O in the assay.
Data returned: YES

Data request: Name the outcome recorded for O=C1C(Cl)=C(N2C(=O)CCC2=O)C(=O)c2ccccc21 in the assay.
Data returned: NO

Data request: Name the outcome recorded for NC1(C(=O)O)CCCC1 [CYCLOLEUCINE] in the assay.
Data returned: NO

Data request: Name the outcome recorded for N=C(N)NCCN1CC2CCC(CC2)C1 in the assay.
Data returned: NO

Data request: Name the outcome recorded for COc1ccc(-c2nc3ncccn3c2-c2ccc([S+](C)[O-])cc2)cc1 (configuration not stated) in the assay.
Data returned: NO

Data request: Name the outcome recorded for C/C(=N\NC(=S)N/N=C(\C)c1ccccn1)c1ccccn1 in the assay.
Data returned: NO

Data request: Name the outcome recorded for Nc1ccccc1S(=O)(=O)N(CC(=O)O)c1ccccc1 in the assay.
Data returned: NO

Data request: Name the outcome recorded for CN(C)CC1CCCC(CN(C)C)C1=NOC(=O)c1ccccc1 (configuration not stated) in the assay.
Data returned: NO

Data request: Name the outcome recorded for Cc1ccc(S(N)(C(=O)Nc2cccc3ccccc23)[N+](=O)[O-])cc1 (configuration not stated) in the assay.
Data returned: NO

Data request: Name the outcome recorded for Nc1nc(=O)c2c([nH]1)NCC(CCNc1ccc(C(=O)O)cc1)N2 (configuration not stated) in the assay.
Data returned: NO

Data request: Name the outcome recorded for CCN(CC)c1ccc(/N=C2/C=CC(=O)c3ncccc32)c(C)c1 in the assay.
Data returned: NO

Data request: Name the outcome recorded for Nc1cccc(OCc2nc(N)nc(N)c2-c2ccc(Cl)cc2)c1 in the assay.
Data returned: NO

Data request: Name the outcome recorded for Cc1cc2c(=O)c3ccc(Cl)cc3[nH]c2c(C(=O)O)c1C in the assay.
Data returned: NO

Data request: Name the outcome recorded for C[C@]12CCC3=NCCN3C1=CC[C@@H]1[C@@H]2CC[C@@]2(C)[C@H]1CC[C@]2(C)O in the assay.
Data returned: NO

Data request: Name the outcome recorded for Cc1nc2c(n1CCC(C)C)C(=O)c1ccccc1C2=O in the assay.
Data returned: NO

Data request: Name the outcome recorded for Cc1ccc(S(=O)(=O)N2CC(CCN)c3ccccc32)cc1 (configuration not stated) in the assay.
Data returned: NO

Data request: Name the outcome recorded for COC(=O)c1c(OC(C)=O)ccc2c1c1c(OC(C)=O)c3ccccc3c(OC(C)=O)c1n2Cc1ccccc1 in the assay.
Data returned: NO

Data request: Name the outcome recorded for CC(C)OP(=O)(OC(C)C)/C(I)=N/Nc1ccc([N+](=O)[O-])cc1 in the assay.
Data returned: NO

Data request: Name the outcome recorded for COc1cc2c(cc1OC)-c1c(oc3cc(OC4OC(CO)C(O)C(O)C4O)c(OC)cc3c1=O)C(O)O2 (configuration not stated) in the assay.
Data returned: NO

Data request: Name the outcome recorded for FC(F)(F)c1ccc2c(c1)nc(-c1ccc(Cl)cc1)n2CC1CCCN2CCCCC12 (configuration not stated) in the assay.
Data returned: NO

Data request: Name the outcome recorded for Cc1cc2cc3cc(C)c(N)cc3nc2cc1N [ACRIDINE YELLOW] in the assay.
Data returned: YES

Data request: Name the outcome recorded for Nc1c(C(=O)c2ccc(Cl)c(Cl)c2)[nH]c(NCc2ccccc2)c1C(=S)Nc1ccccc1 in the assay.
Data returned: NO

Data request: Name the outcome recorded for O=c1/c(=C/c2ccccn2)sc2nc3cc4c(cc3n12)OCCO4 in the assay.
Data returned: NO

Data request: Name the outcome recorded for CC(=O)Nc1ccc(OCC(O)CO)cc1 (configuration not stated) in the assay.
Data returned: NO

Data request: Name the outcome recorded for CC[C@@H]1CC[C@@H]2[C@H](CC[C@]3(C)[C@@H](OC(C)=O)CC[C@@H]23)[C@H]1C(=O)OC in the assay.
Data returned: NO

Data request: Name the outcome recorded for O=[N+]([O-])C(=C/c1ccccc1)/C(=C\c1ccccc1)[N+](=O)[O-] in the assay.
Data returned: NO

Data request: Name the outcome recorded for CCc1cc2c(c3[nH]ccc13)[C@@H](C)C[C@H]2C in the assay.
Data returned: NO
